target.under.test: human GPR40 (Homo sapiens, UniProt O14842)
Construct: expressed in transfected cells; host or cells: HEK cells stably expressing the aequorin reporter
Sequence (O14842 whole entry): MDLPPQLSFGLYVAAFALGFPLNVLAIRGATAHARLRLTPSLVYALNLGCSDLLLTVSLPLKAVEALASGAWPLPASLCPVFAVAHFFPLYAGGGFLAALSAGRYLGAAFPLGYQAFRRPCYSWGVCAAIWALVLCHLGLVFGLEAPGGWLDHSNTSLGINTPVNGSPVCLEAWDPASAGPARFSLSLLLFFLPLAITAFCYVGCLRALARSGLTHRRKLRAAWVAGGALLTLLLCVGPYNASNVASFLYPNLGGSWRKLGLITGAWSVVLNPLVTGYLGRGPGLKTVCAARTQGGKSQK
assay.protocol: Inositol Phosphate Turnover (IP1) Assay 3
Type: cell-based
condition.context: HEK cells stably expressing human GPR40
quantity.kind: EC50 (nM)
Answers are plain numbers, in nM.

Here is how some compounds turned out for EC50.
COc1cc(-c2ccc(C3CCc4ccc([C@H](C5CC5)[C@H](C)C(=O)O)cc4O3)c(CN3CCCC[C@@H]3C)c2)ccn1 (some centres unmarked)	0.4
COc1cc(-c2ccc(C3CCc4ccc([C@H](C5CCC5)[C@H](C)C(=O)O)cc4O3)cc2CN2CCCC2C)c(F)cn1 (some centres unmarked) [Example 103]	0.09
COc1cc(-c2cc(F)c(C3CCc4ccc([C@H](C5CC5)[C@H](C)C(=O)O)cc4O3)cc2CN(C(C)C)C(C)C)ccn1 (single isomer, unassigned) [Example 184]	0.73
COc1cc(-c2ccc(C3CCc4ccc([C@H](C5CC5)[C@H](C)C(=O)O)cc4O3)c(CN3CCC[C@@H]3C)c2)c(F)cn1 (single isomer, unassigned) [Example 129a]	0.25
COc1cc(-c2ccc(C3CCc4ccc([C@H](C5CC5)[C@H](C)C(=O)O)cc4O3)cc2CN2C3CCCC2CC3)c(F)cn1 (some centres unmarked)	0.9

Give EC50 for each of the items listed below.
1. COc1cc(-c2ccc(C3CCc4ccc([C@H](C5CC5)[C@H](C)C(=O)O)cc4O3)c(CN(C(C)C)C(C)C)c2)c(F)cn1 (single isomer, unassigned) [Example 126b]
2. COc1cc(-c2ccc(C3CCc4ccc([C@H](C5CC5)[C@H](C)C(=O)O)cc4O3)cc2CN2CCC3CC32)c(F)cn1 (single isomer, unassigned) [Example 256b]
3. COc1cc(-c2ccc(C3CCc4ccc([C@H](C5CC5)[C@H](C)C(=O)O)cc4O3)cc2CN2CCCCC23CCC3)c(F)cn1 (some centres unmarked)
4. CCN(CC)Cc1cc(C2CCc3ccc([C@H](C4CC4)[C@H](C)C(=O)O)cc3O2)ncc1-c1cc(OC)ncc1F (single isomer, unassigned) [Example 87]

### Response
1: 2.7; 2: 0.9; 3: 0.2; 4: 6.6

Give EC50 for each of the items listed below.
1. COc1cc(-c2ccc(C3CCc4ccc([C@H](C5CC5)[C@H](C)C(=O)O)cc4O3)cc2CN(C)C(C)(C)C)c(C#N)cn1 (single isomer, unassigned) [Example 193]
2. CCN(Cc1cc(C2CCc3ccc([C@H](C4CC4)[C@H](C)C(=O)O)cc3O2)ccc1-c1cc(OC)ncc1C#N)C(C)C (some centres unmarked)

### Response
1: 1.5; 2: 0.5

====

target.under.test: human GPR40 (Homo sapiens)
Construct: expressed in transfected cells; host or cells: HEK cells stably expressing the aequorin reporter
assay.protocol: Inositol Phosphate Turnover (IP1) Assay 3
Assay type: cell-based
condition.context: HEK cells stably expressing human GPR40
quantity.kind: pEC50
Answers are plain numbers, as −log10 of the molar value.

Here is how some compounds turned out for pEC50.
COc1cc(-c2ccc(C3CCc4ccc([C@H](C5CCC5)[C@H](C)C(=O)O)cc4O3)cc2CN2CCCC2C)c(F)cn1 (single isomer, unassigned) [Example 100]	9.85
COc1cc(-c2ccc(C3CCc4ccc([C@H](C5CC5)[C@H](C)C(=O)O)cc4O3)cc2CN2CCCCC23CC3)ccn1 (stereo partly drawn) [Example 276]	9.70
COc1cc(-c2ccc(C3CCc4ccc([C@H](C5CC5)[C@H](C)C(=O)O)cc4O3)c(CN3CCCCC3(C)C)c2)ccn1 (single isomer, unassigned) [Example 117b]	7.62
COc1cc(-c2ccc(C3CCc4ccc([C@H](C5CC5)[C@H](C)C(=O)O)cc4O3)cc2CNC(C)C)ccn1 (stereo partly drawn) [Example 243]	6.09
CCOc1cc(-c2ccc(C3CCc4ccc([C@H](C5CC5)[C@H](C)C(=O)O)cc4O3)cc2CN(CC)CC)c(F)cn1 (single isomer, unassigned) [Example 171]	8.60

// moving on: another record for pEC50
### Prompt Please respond with reported pEC50 (system human GPR40 (Homo sapiens)) for COc1cc(-c2ccc([C@@H]3CCc4ccc([C@H](C5CC5)[C@H](C)C(=O)O)cc4O3)cc2CNC(C)C)c(F)cn1 [Example 232] .
### Response 7.44

====

For each of the compounds below, state its EC50.
target.under.test: human GPR40 (Homo sapiens, UniProt O14842)
Construct: expressed in transfected cells; host or cells: HEK cells stably expressing the aequorin reporter
assay.protocol: Inositol Phosphate Turnover (IP1) Assay 2
Format: cell-based
condition.context: HEK cells stably expressing human GPR40; 15,000 cells per well; compound acoustically transferred; CisBio IP-One kit
One number for each entry, in nM.

Here is how some compounds turned out for EC50.
COc1cc(-c2ccc([C@H]3CCc4ccc([C@H](C5CC5)[C@H](C)C(=O)O)cc4O3)cc2[C@@H](C)N(C)C)c(F)cn1 [Example 81]	4
COC[C@@H]1CCCN1Cc1cc([C@H]2CCc3ccc([C@H](C4CC4)[C@H](C)C(=O)O)cc3O2)ccc1-c1cc(OC)ncc1F [Example 135]	5
COc1cc(-c2ccc([C@@H]3CCc4ccc([C@H](C5CC5)[C@H](C)C(=O)O)cc4O3)cc2CN2CCCCC2)c(F)cn1 [Example 151]	2

Give EC50 for each of the items listed below.
1. COc1cc(-c2ccc(C3CCc4ccc([C@H](C5CC5)[C@H](C)C(=O)O)cc4O3)cc2CN2CCC3OCCC32)c(F)cn1 (some centres unmarked) [Example 39]
2. COc1cc(-c2ccc(C3CCc4ccc([C@H](C5CC5)[C@H](C)C(=O)O)cc4O3)cc2CN2CC[C@H](O)C2)c(F)cn1 (some centres unmarked) [Example 7]

### Response
2.1
118

====

target.under.test: human GPR40 (Homo sapiens)
Construct: expressed in transfected cells; host or cells: HEK cells stably expressing the aequorin reporter
assay.protocol: Inositol Phosphate Turnover (IP1) Assay 3
Assay type: cell-based
condition.context: HEK cells stably expressing human GPR40
quantity.kind: pEC50
Give bare numbers, as −log10 of the molar value.

COc1cc(-c2ccc(C3CCc4ccc([C@H](C5CC5)[C@H](C)C(=O)O)cc4O3)c(CN3[C@H](C)CC[C@@H]3C)c2)ccn1 (stereo partly shown) [Example 122]	9.15

Give pEC50 for each of the items listed below.
1. COc1cc(-c2ccc(C3CCc4ccc([C@H](C5CC5)[C@H](C)C(=O)O)cc4O3)c(CN3[C@H](C)CC[C@H]3C)c2)ccn1 (single isomer, unassigned) [Example 116a]
2. COc1cc(-c2ccc(C3CCc4ccc([C@H](C5CC5)[C@H](C)C(=O)O)cc4O3)c(CN3CCCC3)c2)c(F)cn1 (single isomer, unassigned) [Example 123b]

### Response
[8.77, 8.85]

### Prompt Please give the documented pEC50 of COc1cc(-c2ccc(C3CCc4ccc([C@H](C5CC5)[C@H](C)C(=O)O)cc4O3)cc2CN2CCC3(CC3)C2)c(F)cn1 (stereo partly shown)
### Response 9.10

====

For each of the compounds below, state its EC50.
target.under.test: human GPR40 (Homo sapiens, UniProt O14842)
Construct: expressed in transfected cells; host or cells: HEK cells stably expressing the aequorin reporter
assay.protocol: Inositol Phosphate Turnover (IP1) Assay 3
Format: cell-based
condition.context: HEK cells stably expressing human GPR40
Give bare numbers, in nM.

COc1cc(-c2ccc(C3CCc4ccc([C@H](C5CC5)[C@H](C)C(=O)O)c(F)c4O3)cc2CN2CCCCC23CC3)c(F)cn1 (single isomer, unassigned) [Example 202]	0.16

Give EC50 for each of the items listed below.
1. COc1cc(-c2ccc(C3CCc4ccc([C@H](C5CC5)[C@H](C)C(=O)O)cc4O3)c(F)c2CN2CCCC2)c(F)cn1 (single isomer, unassigned) [Example 220]
2. COc1cc(-c2ccc(C3CCc4ccc([C@H](C5CC5)[C@H](C)C(=O)O)cc4O3)c(CN(C(C)C)C(C)C)c2)c(F)cn1 (mixture of isomers) [Example 126]
3. CCN(Cc1cc(-c2ccnc(OC)c2)ccc1C1CCc2ccc([C@H](C3CC3)[C@H](C)C(=O)O)cc2O1)C(C)C (single isomer, unassigned) [Example 113a]

### Response
1. 7.2
2. 0.1
3. 0.4

====

target.under.test: human GPR40 (Homo sapiens)
Construct: expressed in transfected cells; host or cells: HEK cells stably expressing the aequorin reporter
assay.protocol: Inositol Phosphate Turnover (IP1) Assay 3
Assay type: cell-based
condition.context: HEK cells stably expressing human GPR40
For each of the compounds below, state its EC50.
One number for each entry, in pM.

Here is how some compounds turned out for EC50.
COc1cc(-c2ccc(C3CCc4ccc([C@H](C5CC5)[C@H](C)C(=O)O)cc4O3)c(CN3CCCC3(C)C)c2)ccn1 (mixture of isomers) [Example 111]	700
CCOc1cc(-c2ccc(C3CCc4ccc([C@H](C5CC5)[C@H](C)C(=O)O)cc4O3)c(CN3CCC[C@@H]3C)c2)c(F)cn1 (single isomer, unassigned) [Example 133]	800

// moving on: another record for EC50
### Prompt Please give the documented EC50 of CCN(Cc1cc(-c2ccnc(OC)c2)ccc1C1CCc2ccc([C@H](C3CC3)[C@H](C)C(=O)O)cc2O1)C(C)C (mixture of isomers) [Example 113]
### Response 700
